Assay target: Metabotropic glutamate receptor 8 (Rattus norvegicus) (UniProt P70579)
Sequence (P70579 whole entry, looked up): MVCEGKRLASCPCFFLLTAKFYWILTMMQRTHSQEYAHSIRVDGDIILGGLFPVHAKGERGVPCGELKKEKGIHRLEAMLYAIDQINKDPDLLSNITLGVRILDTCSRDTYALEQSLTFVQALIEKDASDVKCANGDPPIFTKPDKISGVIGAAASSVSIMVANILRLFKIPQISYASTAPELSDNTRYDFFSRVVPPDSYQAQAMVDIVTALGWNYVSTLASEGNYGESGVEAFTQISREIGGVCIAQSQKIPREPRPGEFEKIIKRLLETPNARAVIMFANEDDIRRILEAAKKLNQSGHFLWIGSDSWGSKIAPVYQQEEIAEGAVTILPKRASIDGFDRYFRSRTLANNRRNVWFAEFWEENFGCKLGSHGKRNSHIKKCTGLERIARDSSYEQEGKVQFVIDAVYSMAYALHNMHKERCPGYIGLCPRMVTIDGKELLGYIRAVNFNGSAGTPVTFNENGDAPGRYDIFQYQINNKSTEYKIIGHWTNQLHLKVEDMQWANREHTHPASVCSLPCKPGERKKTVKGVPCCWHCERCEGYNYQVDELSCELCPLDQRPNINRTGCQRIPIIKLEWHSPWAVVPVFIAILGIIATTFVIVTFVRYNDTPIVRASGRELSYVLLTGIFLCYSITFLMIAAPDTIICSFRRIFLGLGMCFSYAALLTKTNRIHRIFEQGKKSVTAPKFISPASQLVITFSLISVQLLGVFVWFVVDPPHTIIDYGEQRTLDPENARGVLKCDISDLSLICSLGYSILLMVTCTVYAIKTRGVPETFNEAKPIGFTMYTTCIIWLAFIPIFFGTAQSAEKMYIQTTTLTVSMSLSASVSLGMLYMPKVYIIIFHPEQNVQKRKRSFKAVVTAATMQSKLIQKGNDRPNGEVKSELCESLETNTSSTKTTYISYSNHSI
Assay details: mGluR8 Gi/Go-coupled signaling modulation – cell-based, rat, thallium flux, HTS, primary screen (AID 488969)
Settings: HEK293 rat mGluR8, GIRK thallium flux, FluoZin2; at 10 µM; stronger effect = higher value; submaximal glutamate (EC20) added with thallium
Over roughly 110,000 compounds, “z-score” has its median near -0.1; the highest 2% begin near 2. This excerpt belongs to a sample that is enriched for the highest values.
Mark Criterion met for reported z-score of -0.04 or greater; mark Criterion not met for anything smaller.

Ask: Hi, just wondering whether `Cc1ccc(-n2nc(CN3CCOCC3)c(-c3ccccc3)c2N)c(C)c1` shows z-score of -0.04 or higher.
Reply: Criterion met

Ask: Hi, just wondering whether `CCN(CC)C(=O)CSCc1cnn(-c2ccccc2)c1-n1cccc1` shows z-score of -0.04 or higher.
Reply: Criterion met

Ask: Hi, just wondering whether Cc1sc2ncnc(SC(C)C(=O)N3c4ccccc4Sc4ccccc43)c2c1C (stereo unspecified) shows z-score of -0.04 or higher.
Reply: Criterion met

Ask: Hi, just wondering whether `CCc1ccc(OCC(=O)NNC(=O)CSc2ncnc3sc(C)c(C)c23)cc1` shows z-score of -0.04 or higher.
Reply: Criterion met

Ask: Hi, just wondering whether CCC(Sc1ncnc2sc(C)c(C)c12)C(=O)OC (stereo unspecified) shows z-score of -0.04 or higher.
Reply: Criterion not met

Ask: Hi, just wondering whether `Cc1sc2ncnc(SCC(=O)c3ccc(Cl)s3)c2c1C` shows z-score of -0.04 or higher.
Reply: Criterion met

###

Assay target: Metabotropic glutamate receptor 8 (Rattus norvegicus)
Assay details: mGluR8 Gi/Go-coupled signaling modulation – cell-based, rat, thallium flux, HTS, primary screen (AID 488969)
Settings: HEK293 rat mGluR8, GIRK thallium flux, FluoZin2; at 10 µM; stronger effect = higher value; submaximal glutamate (EC20) added with thallium
In all, about 110,000 compounds were measured (“z-score”: median about -0.1, highest 2% from about 2 on). For the sample, the highest values were picked, then their nearest neighbours and some compounds at random.
Mark Y for reported z-score of 0.2 or greater; mark N for anything smaller.

Ask: Hi, just wondering whether `Cc1nn(-c2ccccc2)c(N2CCCC2)c1/C=N/NC(=S)Nc1ccccc1C(F)(F)F` shows z-score of 0.2 or higher.
Reply: Y

Ask: Hi, just wondering whether `FC(F)(F)c1ccc(Cl)c(NC(=S)N/N=C/c2ccccc2C(F)(F)F)c1` shows z-score of 0.2 or higher.
Reply: Y

Ask: Hi, just wondering whether CC(NC(=O)Nc1nnc(C(F)(F)F)s1)N1C(=O)C2C3C=CC(C3)C2C1=O (configuration not stated) shows z-score of 0.2 or higher.
Reply: N

Ask: Hi, just wondering whether `O=C(Cn1nnc(-c2ccccc2)n1)N=Nc1c(O)[nH]c2ccccc12` shows z-score of 0.2 or higher.
Reply: N

Ask: Hi, just wondering whether `Cc1ccc(CNC(=S)Nc2ccc(OC(F)F)cc2C)cc1` shows z-score of 0.2 or higher.
Reply: N

Ask: Hi, just wondering whether `CC/C(=N\NC(=S)Nc1cc(C)ccc1C)c1ccc(OC(F)F)cc1` shows z-score of 0.2 or higher.
Reply: Y

Ask: Hi, just wondering whether `O=C(CSCc1ccccc1)N=Nc1c(O)[nH]c2ccccc12` shows z-score of 0.2 or higher.
Reply: Y

Ask: Hi, just wondering whether `NC(N)=N/N=C/c1ccc(OCc2ccccc2)cc1` shows z-score of 0.2 or higher.
Reply: N

Ask: Hi, just wondering whether `COc1ccccc1NC(=S)NNC(=S)Nc1ccc(OC(F)F)cc1` shows z-score of 0.2 or higher.
Reply: N

Ask: Hi, just wondering whether `COC(=O)c1ccccc1NC(=S)N(Cc1ccc2c(c1)OCO2)Cc1cc2cc(C)ccc2[nH]c1=O` shows z-score of 0.2 or higher.
Reply: Y

Ask: Hi, just wondering whether `Cc1ccc(NC(=S)N/N=C/c2c(C)nn(-c3ccccc3)c2N2CCCC2)cc1` shows z-score of 0.2 or higher.
Reply: Y

Ask: Hi, just wondering whether `O=C(CN1CCN(Cc2ccccc2)CC1)N=Nc1c(O)[nH]c2ccccc12` shows z-score of 0.2 or higher.
Reply: N

Ask: Hi, just wondering whether `CC/C(=N\NC(=S)Nc1ccc(OC)cc1)c1ccc(OC(F)F)cc1` shows z-score of 0.2 or higher.
Reply: Y

Ask: Hi, just wondering whether `CN(C)c1cccc(C(=O)Nc2ccc(N3CCOCC3)cc2)c1` shows z-score of 0.2 or higher.
Reply: N

Ask: Hi, just wondering whether `CC1(C)CC(=O)C(C=Nc2ccccc2Sc2ccccc2)=C(O)C1` shows z-score of 0.2 or higher.
Reply: N

Ask: Hi, just wondering whether `COc1ccc(C/C(C)=N/NC(=S)Nc2ccccc2)cc1` shows z-score of 0.2 or higher.
Reply: Y

Ask: Hi, just wondering whether `Fc1ccc(CNC(=S)Nc2ccc(Cl)cc2Cl)cc1` shows z-score of 0.2 or higher.
Reply: N

Ask: Hi, just wondering whether `COC(=O)c1ccccc1NC(=S)N(Cc1ccc2c(c1)OCO2)Cc1cc2ccc(C)cc2[nH]c1=O` shows z-score of 0.2 or higher.
Reply: Y

Ask: Hi, just wondering whether `CCCCOc1ccc(/C=N/NC(=S)Nc2cc(C)ccc2C)cc1` shows z-score of 0.2 or higher.
Reply: Y

Ask: Hi, just wondering whether `c1cncc(-c2nnc(-c3ccco3)o2)c1` shows z-score of 0.2 or higher.
Reply: N

Ask: Hi, just wondering whether `COc1ccc(C/C(C)=N/NC(=S)Nc2ccc(C)c(C)c2)cc1` shows z-score of 0.2 or higher.
Reply: Y

Ask: Hi, just wondering whether Cc1cc(C(=O)NNC(=S)NC(C)c2ccccc2)cs1 (configuration not stated) shows z-score of 0.2 or higher.
Reply: N

###

Assay target: Metabotropic glutamate receptor 8 (Rattus norvegicus)
Assay details: mGluR8 Gi/Go-coupled signaling modulation – cell-based, rat, thallium flux, HTS, primary screen (AID 488969)
Settings: HEK293 rat mGluR8, GIRK (G protein-gated inwardly rectifying potassium channel) thallium flux, FluoZin2; at 10 µM; stronger effect = higher value; submaximal glutamate (EC20) added with thallium
Over roughly 110,000 compounds, “z-score” has its median near -0.1; the highest 2% begin near 2. Many of the other results were omitted from the sample, so the highest values are more common in it than they were.
Assay metric: z-score
Number only, no unit.

Ask: Query (compound): COc1ccc(C2c3ccc4ccccc4c3Oc3ncn(Cc4ccco4)c(=N)c32)cc1OC (stereo unspecified) ; field requested: z-score
Reply: 0.46

Ask: Query (compound): CC1(C)CC(=O)C2=C(C1)Oc1ncn(CCO)c(=N)c1C2c1ccccc1 (stereo unspecified) ; field requested: z-score
Reply: 0.471

Ask: Query (compound): O=C(Nc1ccc(Br)cc1F)c1ccc2c(c1)N(Cc1ccccc1)C(=O)CS2=O (stereo unspecified) ; field requested: z-score
Reply: 1.3

Ask: Query (compound): `Cn1c(SCC(=O)NC(C)(C)C)nc(O)cc1=O` ; field requested: z-score
Reply: -0.0162

Ask: Query (compound): `O=C(NC(=Nc1ccccc1)N1CCOCC1)Nc1ccccc1` ; field requested: z-score
Reply: 2.94

Ask: Query (compound): `O=C(O)CSc1nnnn1-c1ccc2c(c1)OCCO2` ; field requested: z-score
Reply: -0.0806

Ask: Query (compound): `COc1ccc(-c2oc3ncnc(NCCN4CCOCC4)c3c2-c2ccc(OC)cc2)cc1` ; field requested: z-score
Reply: -0.338

Ask: Query (compound): COc1ccc(C2c3ccc4ccccc4c3Oc3ncn(CCN4CCOCC4)c(=N)c32)cc1 (stereo unspecified) ; field requested: z-score
Reply: 4.1

Ask: Query (compound): `COCCCn1c(C)nnc1SCC(=O)NCc1ccco1` ; field requested: z-score
Reply: -0.305

Ask: Query (compound): `O=C(Nc1ccccc1)N1CCOCC1` ; field requested: z-score
Reply: -0.206

Ask: Query (compound): COc1ccc(C2c3c(ncn(Cc4ccco4)c3=N)Oc3ccc4ccccc4c32)cc1 (stereo unspecified) ; field requested: z-score
Reply: -0.169
